# Assay explanation: Ability to inhibit [3H](+)-pentazocine binding to guinea pig brain Sigma receptor type 1
# Ki per record follows
Endpoint: Ki (nM)

In [3]: df
Out[3]:
                                   compound  result_number
0  CN1CCC2(c3cccc(O)c3)CC(=O)C(=Cc3ccc(I)cc3)C1C2 (centres undefined)           1.71
1  CN1CCC2(c3cccc(O)c3)CC(=O)C(=Cc3cccc(I)c3)C1C2 (centres undefined)           1.62
2  CN1CCC2(c3cccc(O)c3)CC(=O)C(=Cc3ccc4ccccc4c3)C1C2 (centres undefined)           16.6
3  CN1CCC2(c3cccc(O)c3)CC(=O)C(=CC3CC3)C1C2 (centres undefined)           62.3
